Tested on: HMLE_sh_eGFP viability, CellTiter-Glo luminescence, 72 h
Assay: cytotoxicity in HMLE control line with eGFP shRNA, dose response, counter-screen for HMLE_sh_ECad selective toxicity project, cell-based, HMLE_sh_eGFP, luminescence (AID 463074);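 note: counterscreen control line to flag general toxicity for the HMLE_sh_ECad screen; potency for loss of viability as luminescence drops below DMSO wells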
Listed below: AC50 values for each entry.

Compound	AC50
O=C1C=C(Nc2ccc(F)cc2)c2ccccc2C1=O	6.78 µM
CN1CCN(S(=O)(=O)c2cccc(C(=O)Nc3cc(C(F)(F)F)ccc3N3CCCCC3)c2)CC1	5.34 µM
CC(NC(=O)COC(=O)c1cc(NS(=O)(=O)c2ccc(Cl)c([N+](=O)[O-])c2)ccc1O)C1CC2CCC1C2 (centres undefined)	3.52 µM
COc1ccc(Sc2ccc(-c3nc4cnccn4c3NC3CCCCC3)cc2OC)cc1	3.57 µM
CCCCCCCCOC(=O)c1c(CSC(=N)N)n(C)c2cc(Br)c(OC(C)=O)cc12	3.72 µM
CCN1CCN(Cc2ccc(NC(=O)c3ccc(C)c(NC(=O)c4cc(-c5ccc(Br)cc5)n[nH]4)c3)cc2C(F)(F)F)CC1	11.6 µM
OC(COc1cccc2ccccc12)CN1CCN(c2ccc(Cl)cc2)CC1 (centres undefined)	7.09 µM
c1ccc(-c2cc(-c3ccncc3)nc3ccc4ccccc4c23)cc1	3.61 µM
O=C(Nc1nc2ccc(SC(F)F)cc2s1)c1ccc(NS(=O)(=O)c2ccc(F)c(F)c2)cc1	3.58 µM
